Tested on: JeKo-1
Test: Antiproliferative activity against human JeKo1 cells
Format: functional, cell-based
Settings: Homo sapiens, JeKo-1
pIC50: −log10 of the molar value.
Measured pIC50, listed per entry for reference.
Reported endpoint: pIC50

Compound: Nc1ncnc2c1c(-c1ccc3c(c1)OCO3)cn2[C@H]1CCN(CC2CC2)C1
Reported result: 5.84
--
Compound: Nc1ncnc2c1c(-c1ccc3c(c1)OCO3)cn2[C@H]1CCN(C(=O)c2ccccn2)C1
Reported result: 4.71
--
Compound: Nc1ncnc2c1c(-c1ccc3c(c1)OCO3)cn2[C@H]1CCN(CC2CCCO2)C1 (stereo not given in full)
Reported result: 5.41
--
Compound: Nc1ncnc2c1c(-c1cc3ccccc3o1)cn2[C@H]1CCN(C[C@@H]2CO2)C1
Reported result: 5.55
--
Compound: Nc1ncnc2c1c(-c1ccc3c(c1)OCO3)cn2C1=CCN(C[C@@H]2CO2)CC1
Reported result: 4.89

---

Target: UniProt Q06187
Assay: Inhibition of BTK (unknown origin) at 0.1 uM in the presence of ATP by caliper mobility shift assay relative to control
Label n if inhibition falls below 20%; label y in every other case.

Chemical string: CC(C)(C)c1ccc(C(=O)Nc2ccc(-c3cn([C@H]4CCN(C[C@@H]5CO5)C4)c4ncnc(N)c34)cc2)cc1
Label value: n
//
Chemical string: Nc1ncnc2c1c(-c1ccc3c(c1)OCO3)cn2C[C@@H]1CCCN(C[C@@H]2CO2)C1
Label value: n
//
Chemical string: Nc1ncnc2c1c(-c1ccc3c(c1)OCO3)cn2C[C@H]1CCCN1C[C@@H]1CO1
Label value: y
//
Chemical string: CC(C)(C)c1ccc(Oc2ccc(-c3cn([C@H]4CCN(C[C@@H]5CO5)C4)c4ncnc(N)c34)cc2)cc1
Label value: n
//
Chemical string: N#CCCN1CC[C@H](n2cc(-c3ccc4c(c3)OCO4)c3c(N)ncnc32)C1
Label value: y
//
Chemical string: C[C@@H]1C[C@H](n2cc(-c3ccc4c(c3)OCO4)c3c(N)ncnc32)CN1C[C@@H]1CO1
Label value: n
//
Chemical string: Nc1ncnc2c1c(-c1ccc3c(c1)OCO3)cn2C[C@H]1CCN(C[C@@H]2CO2)C1
Label value: y
//
Chemical string: CC(C)(C)c1ccc(COc2ccc(-c3cn([C@H]4CCN(C[C@@H]5CO5)C4)c4ncnc(N)c34)cc2)cc1
Label value: n

---

Test system: Ramos
Assay: Antiproliferative activity against human Ramos cells
Assay type: functional, cell-based
Details: Homo sapiens, Ramos

Compound: Nc1ncnc2c1c(-c1ccc3c(c1)OCO3)cn2[C@H]1CCN(CCCO)C1
Comparison symbol: =
IC50 [µM]: 20.9

Compound: Nc1ncnc2c1c(-c1cccc(-n3ncc4ccccc4c3=O)c1)cn2[C@H]1CCN(C[C@@H]2CO2)C1
Comparison symbol: =
IC50 [µM]: 15.2

Compound: CC(C)(C)c1ccc(COc2ccc(-c3cn([C@H]4CCN(C[C@@H]5CO5)C4)c4ncnc(N)c34)cc2)cc1
Comparison symbol: =
IC50 [µM]: 4.21

Compound: CN(C)C(=O)N1CC[C@H](n2cc(-c3ccc4c(c3)OCO4)c3c(N)ncnc32)C1
Comparison symbol: =
IC50 [µM]: 27.7

Compound: Nc1ncnc2c1c(-c1ccc3c(c1)OCO3)cn2[C@@H]1CCN(C[C@H]2CO2)C1
Comparison symbol: >
IC50 [µM]: 50

Compound: NC(=O)CN1CC[C@H](n2cc(-c3ccc4c(c3)OCO4)c3c(N)ncnc32)C1
Comparison symbol: =
IC50 [µM]: 13.3

Compound: Nc1ncnc2c1c(-c1ccc3c(c1)OCO3)cn2[C@H]1CCN(CC2CC2)C1
Comparison symbol: =
IC50 [µM]: 16.9

Compound: Nc1ncnc2c1c(-c1ccc3c(c1)OCO3)cn2[C@H]1CCN(C[C@@H]2CO2)C1
Comparison symbol: =
IC50 [µM]: 12.5

Compound: Nc1ncnc2c1c(-c1ccc3c(c1)OCO3)cn2[C@H]1CCN(CC2CCCO2)C1 (stereo partly drawn)
Comparison symbol: =
IC50 [µM]: 27.1

Compound: C[C@@H]1C[C@H](n2cc(-c3ccc4c(c3)OCO4)c3c(N)ncnc32)CN1C[C@@H]1CO1
Comparison symbol: =
IC50 [µM]: 7.97

Compound: Nc1ncnc2c1c(-c1cc3ccccc3o1)cn2[C@H]1CCN(C[C@@H]2CO2)C1
Comparison symbol: =
IC50 [µM]: 6.74

Compound: CC(C)(C)c1ccc(Oc2ccc(-c3cn([C@H]4CCN(C[C@@H]5CO5)C4)c4ncnc(N)c34)cc2)cc1
Comparison symbol: =
IC50 [µM]: 11.2

Compound: Nc1ncnc2c1c(-c1ccc3c(c1)OCO3)cn2C[C@H]1CCCN1C[C@@H]1CO1
Comparison symbol: =
IC50 [µM]: 18

Compound: Nc1ncnc2c1c(-c1ccc3c(c1)OCO3)cn2[C@H]1CCN(C(=O)c2ccccc2)C1
Comparison symbol: =
IC50 [µM]: 35.2

Compound: Nc1ncnc2c1c(-c1cnc3[nH]ccc3c1)cn2[C@H]1CCN(C[C@@H]2CO2)C1
Comparison symbol: =
IC50 [µM]: 4.65

Compound: Nc1ncnc2c1c(-c1ccc3c(c1)OCO3)cn2C[C@@H]1CCN(C[C@@H]2CO2)C1
Comparison symbol: =
IC50 [µM]: 13.3

Compound: Nc1ncnc2c1c(-c1ccc3c(c1)OCO3)cn2C1=CCN(C[C@@H]2CO2)CC1
Comparison symbol: =
IC50 [µM]: 2.11

Compound: Nc1ncnc2c1c(-c1ccc(Oc3ccccc3)cc1)cn2[C@H]1CCN(C[C@@H]2CO2)C1
Comparison symbol: =
IC50 [µM]: 6.71

---

System: Ramos
Assay: Antiproliferative activity against human Ramos cells
Format: functional, cell-based
Settings: Homo sapiens, Ramos
Recorded IC50 for the following compounds

Compound: Nc1ncnc2c1c(-c1ccc(Oc3ccccc3)cc1)cn2[C@H]1CCN(C[C@H]2CO2)C1
Comparison symbol: >
IC50 / µM: 50

Compound: Nc1ncnc2c1c(-c1cc3ccccc3o1)cn2[C@H]1CCN(C[C@H]2CO2)C1
Comparison symbol: =
IC50 / µM: 1.65

Compound: Nc1ncnc2c1c(-c1ccc3c(c1)OCO3)cn2CC1CCCO1 (centres undefined)
Comparison symbol: =
IC50 / µM: 24.2

Compound: CC(C)(C)c1ccc(C(=O)Nc2ccc(-c3cn([C@H]4CCN(C[C@@H]5CO5)C4)c4ncnc(N)c34)cc2)cc1
Comparison symbol: =
IC50 / µM: 2.97

Compound: Nc1ncnc2c1c(-c1ccc(Oc3ccccc3)cc1)cn2C[C@H]1CCCN1C[C@@H](O)CO
Comparison symbol: =
IC50 / µM: 13.5

Compound: CN(C)CC(=O)N1CC[C@H](n2cc(-c3ccc4c(c3)OCO4)c3c(N)ncnc32)C1
Comparison symbol: =
IC50 / µM: 21

Compound: Nc1ncnc2c1c(-c1ccc3c(c1)OCO3)cn2C[C@H]1CCCN(C[C@@H]2CO2)C1
Comparison symbol: =
IC50 / µM: 15.1

Compound: Nc1ncnc2c1c(-c1ccc3c(c1)OCO3)cn2[C@H]1CCN(C(=O)c2ccccn2)C1
Comparison symbol: =
IC50 / µM: 20.7

Compound: N#CCCN1CC[C@H](n2cc(-c3ccc4c(c3)OCO4)c3c(N)ncnc32)C1
Comparison symbol: =
IC50 / µM: 13.2

---

System: JeKo-1
Experiment: Antiproliferative activity against human JeKo1 cells
Type: functional, cell-based
Settings: Homo sapiens, JeKo-1
Reported endpoint: log10 IC50 (log10 of the value in µM)

Chemical string: Nc1ncnc2c1c(-c1ccc3c(c1)OCO3)cn2C[C@H]1CCN(C[C@@H]2CO2)C1
log10 IC50: 0.86

Chemical string: COCCN1CC[C@H](n2cc(-c3ccc4c(c3)OCO4)c3c(N)ncnc32)C1
log10 IC50: 0.83

Chemical string: Nc1ncnc2c1c(-c1ccc(Oc3ccccc3)cc1)cn2[C@H]1CCN(C[C@@H]2CO2)C1
log10 IC50: 0.17

Chemical string: CC(C)(C)c1ccc(COc2ccc(-c3cn([C@H]4CCN(C[C@@H]5CO5)C4)c4ncnc(N)c34)cc2)cc1
log10 IC50: 0.78

Chemical string: CN(C)C(=O)N1CC[C@H](n2cc(-c3ccc4c(c3)OCO4)c3c(N)ncnc32)C1
log10 IC50: 1.38

---

Target: Tyrosine-protein kinase BTK (Homo sapiens)
Sequence (Q06187 whole entry): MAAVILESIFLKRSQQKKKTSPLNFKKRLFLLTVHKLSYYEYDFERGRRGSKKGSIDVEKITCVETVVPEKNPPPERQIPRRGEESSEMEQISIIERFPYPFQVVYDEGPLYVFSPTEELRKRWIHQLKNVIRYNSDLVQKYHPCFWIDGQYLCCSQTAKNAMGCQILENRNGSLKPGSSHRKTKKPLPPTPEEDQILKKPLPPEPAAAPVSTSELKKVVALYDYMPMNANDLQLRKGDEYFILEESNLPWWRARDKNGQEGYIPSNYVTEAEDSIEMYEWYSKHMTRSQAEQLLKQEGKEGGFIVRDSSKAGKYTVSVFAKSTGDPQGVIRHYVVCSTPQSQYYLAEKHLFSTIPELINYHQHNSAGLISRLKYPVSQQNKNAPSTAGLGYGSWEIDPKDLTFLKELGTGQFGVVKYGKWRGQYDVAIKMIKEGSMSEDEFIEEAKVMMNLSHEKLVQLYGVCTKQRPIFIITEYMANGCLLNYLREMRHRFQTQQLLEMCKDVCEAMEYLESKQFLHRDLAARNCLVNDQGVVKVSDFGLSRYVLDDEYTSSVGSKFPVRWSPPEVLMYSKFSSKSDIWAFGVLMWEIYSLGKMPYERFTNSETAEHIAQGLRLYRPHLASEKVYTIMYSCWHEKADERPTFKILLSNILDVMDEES
Experiment: Inhibition of BTK (unknown origin) at 1 uM in the presence of ATP by caliper mobility shift assay relative to control
Listed here: items and their measured inhibition.

Compound: Nc1ncnc2c1c(-c1ccc3c(c1)OCO3)cn2[C@H]1CCN(C(=O)c2ccccc2)C1
Measure unit: %
inhibition: 29.4

Compound: CC1(CN2CC[C@H](n3cc(-c4ccc5c(c4)OCO5)c4c(N)ncnc43)C2)COC1
Measure unit: %
inhibition: 36.1

Compound: Nc1ncnc2c1c(-c1ccc3c(c1)OCO3)cn2C[C@H]1CCCN1C[C@@H]1CO1
Measure unit: %
inhibition: 94.5

Compound: Nc1ncnc2c1c(-c1ccc3c(c1)OCO3)cn2C[C@H]1CCCN(C[C@@H]2CO2)C1
Measure unit: %
inhibition: 70.3

Compound: CC(C)(C)c1ccc(CN2CC[C@H](n3cc(-c4ccc5c(c4)OCO5)c4c(N)ncnc43)C2)cc1
Measure unit: %
inhibition: 3

Compound: Nc1ncnc2c1c(-c1ccc3c(c1)OCO3)cn2[C@H]1CCN(CC2CCCO2)C1 (some centres undefined)
Measure unit: %
inhibition: 18.9

Compound: Nc1ncnc2c1c(-c1cnc3[nH]ccc3c1)cn2[C@H]1CCN(C[C@@H]2CO2)C1
Measure unit: %
inhibition: 46.6

Compound: NC(=O)CN1CC[C@H](n2cc(-c3ccc4c(c3)OCO4)c3c(N)ncnc32)C1
Measure unit: %
inhibition: 48.6

Compound: Nc1ncnc2c1c(-c1ccc(NC(=O)c3ccccc3)cc1)cn2[C@H]1CCN(C[C@@H]2CO2)C1
Measure unit: %
inhibition: 22.9
